Examples of sequences with documented folding stability dG unfold follow.
- protocol: folding stability dG unfold (combined trypsin and chymotrypsin); higher = more stable
# value in kcal/mol; strip the unit string

Example entries begin here.
sequence-record	folding stability dG unfold / kcal/mol
SAGGSAETITVMIPPNFLKKLKDQGIKIPPGYPWITITVTYNPDGKIKIKVQIQPMPPVSPEDMKKSAGGSA [r15_322_TrROS]	2.29
SAGMVKITVPSSVGPVDPSKALTFEKDDTRYILVPGEVAKEIEEKYPDLPIEIEPMSEEEAEKILKELSAGG [r19_271_JUSTAS]	0.258

Query :: Which folding stability dG unfold value belongs to SAGMITLPTRGPEELIERLRAIAEELGLSEEDIEQFLRDLAEHATIEQDGDLLLITFQPPVPALPGEPESAG [r5_717_TrMRF] ?
Result :: 1.74

Query :: Query: folding stability dG unfold; subject: SGSMTLVSESTVPEKGTTLLTLKFPNGAPATVTLNPDGSSTTTFPATGLPFTVTVGSGTLTVTTPAALALSA [r9_233_JUSTAS]
Result :: 1.23

Query :: # query: folding stability dG unfold of entry SAGGSAGGSFKDVPPGLKPLREEENVLFYQLPDGSYLVLVKEGDKIKKIKASKSTSIEEAIKKSAGGSAGGS [r12_605_JUSTAS]
Result :: 1.61

Query :: Which measured folding stability dG unfold value corresponds to SAMIVVPATFDDRTFVLRIERLPDGSYLVDVEDPDVSREAVVEALRELLPEDAKIVLDPETNLVYVSFDSAG [r14_370_TrMRF] ?
Result :: 3.55

Query :: Data request, read-out folding stability dG unfold, for SAGGSAGGSSTATFTLSRLPDGTYRLTLYDPSTNKVTTEEVPASRPDEYSAVTVSSDGTVTTASAGGSAGGS [r20_11_JUSTAS]
Result :: 0.662
